- test_target: Cellular tumor antigen p53 (Homo sapiens) (UniProt P04637)
- Sequence (P04637 whole entry, looked up): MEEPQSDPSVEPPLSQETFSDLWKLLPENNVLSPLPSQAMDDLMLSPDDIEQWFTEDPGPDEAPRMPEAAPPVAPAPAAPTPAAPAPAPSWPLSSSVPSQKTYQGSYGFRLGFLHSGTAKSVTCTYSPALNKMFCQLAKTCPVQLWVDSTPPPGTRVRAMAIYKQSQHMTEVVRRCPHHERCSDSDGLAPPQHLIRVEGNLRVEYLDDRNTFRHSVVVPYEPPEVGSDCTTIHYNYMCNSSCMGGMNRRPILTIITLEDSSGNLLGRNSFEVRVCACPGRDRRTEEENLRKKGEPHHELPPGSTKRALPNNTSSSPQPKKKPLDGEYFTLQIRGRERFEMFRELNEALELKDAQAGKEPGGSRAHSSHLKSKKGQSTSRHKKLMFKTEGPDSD
- protocol_notes: Primary qHTS for small molecule compounds that upregulate eGFP-tagged delta133p53alpha (in N-terminal) cells. (AID 2060322);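 also: cells pre-induced with doxycycline then dosed without doxycycline; 0% = DMSO vehicle and 100% = reference activator; nearly all actives have a fitted effect of over 75% in size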
- experimental_conditions: NCI-H358 eGFP-delta133p53alpha fluorescence, 24 h; active compounds read high
Inconclusive results are not listed.
Below, each entry is listed alongside its reported activation.
Field: numeric (%). Do not append units.

These recorded examples may help you get a feel for the data.
molecule: CN1CC(=O)N/C1=N/C(=O)Nc1cccc(Cl)c1
endpoint_value: 5.86
//
molecule: C=C1CCC2C(C)(COC3OC(COC(=O)CC(=O)O)C(O)C(O)C3O)CCCC2(C)C1CCC1=CCOC1=O (configuration not stated)
endpoint_value: 8.4
//
molecule: O=C1[C@H]2CCCC[C@H]2C(=O)N1CCCCN1CCN(c2nsc3ccccc23)CC1
endpoint_value: 10.7
//
molecule: CC1(C)CC[C@]2(C(=O)O)CC[C@]3(C)C(=CCC4[C@@]5(C)CC[C@H](O[C@@H]6O[C@H](CO)[C@@H](O)[C@H](O)[C@H]6O[C@@H]6O[C@H](CO)[C@@H](O)[C@H](O)[C@H]6O)[C@@](C)(CO)C5CC[C@]43C)[C@@H]2C1 (some centres not stated)
endpoint_value: 9.82
//
molecule: CNc1cc2[nH]c(=O)n(-c3ccc(NC(=O)NS(=O)(=O)c4ccc(Cl)s4)cc3)c(=O)c2cc1F
endpoint_value: 8.11

// activation lookup, molecule = C=C1C(=O)OC2CC(C)=C(C(C)CCCO[C@@H]3O[C@H](CO)[C@@H](O)[C@H](O)[C@H]3O)C(O)C12 (some centres not stated) , result: -18.3

// recorded activation for CCOC(=O)[C@H](CCc1ccccc1)N[C@@H](C)C(=O)N1CCC[C@H]1C(=O)O : 0

* * *

- test_target: Aldehyde dehydrogenase 1A1 (Homo sapiens)
- protocol_notes: qHTS for Inhibitors of the Aldehyde Dehydrogenase Family (ALDH1A1) Confirmatory screens (AID 2061316); also: nearly all actives have a fitted effect of over 65% in size
- experimental_conditions: ALDH inhibition qHTS; series mostly up to 47.3 µM
Results filed as inconclusive are left out. Activity calls are given as the source filed them. Calls come from the whole dose curve; as a rule, active = well fitted inhibition curve with a large enough effect; inconclusive = small, poorly fitted or top-dose-only effect; inactive = no such curve, though single readings can be large or run the other way.
Please answer using one outcome listed in 1 = active, 0 = inactive

Consider the following illustrative entries.
structure_string: Cc1c(Cl)cccc1NS(=O)(=O)c1cc2c(cc1Cl)CCC(=O)N2
class_label: 0
--
structure_string: Cc1c(Cl)cccc1NS(=O)(=O)c1cc2c(cc1F)NC(=O)CC2
class_label: 0
--
structure_string: S=C(NCc1ccc2c(c1)OCO2)N1CCN(c2ncnc3c2oc2ccccc23)CC1
class_label: 0
--
structure_string: O=C(O)c1cccc(-n2cccc2)c1
class_label: 0
--
structure_string: CC(=O)Nc1sc2c(c1-c1ccc(C(F)(F)F)cc1)CCNC2
class_label: 0

input: Which outcome was assigned to O=[N+]([O-])c1ccccc1CSc1nc2ncc(Br)cc2[nH]1 in this test?
output: 1

input: Which outcome did this test record for the compound Cc1ccc(NC(=O)N2CCN(c3nc(N)nc4sc(-c5cccnc5)nc34)CC2)cc1 ?
output: 1

input: Tell me the assay call for CCOc1ccc(NC(=O)Cn2c(Nc3cc(C)cc(C)c3)nc(C)cc2=O)cc1 please.
output: 0

input: Called result for S=C(NCCCc1cnc[nH]1)NCCCN(Cc1ccc(Cl)c(Cl)c1)c1ccccn1
output: 0

input: Recorded test call requested for COc1cc(OC)c(NC(=O)c2ccc(Cc3cc4c(cc3C)C(C)(C)CCC4(C)C)o2)c(OC)c1
output: 1
